test system: PLK4; conditions: concentration: 1 μM, replicates: in singlicate; n = 1;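 note: KINOMEscan kinase panel screen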
Assignment: determine reported %Inh for the given compounds.
Answers are plain numbers, in %.

[[record]]
compound = "O=C(Nc1n[nH]c2nc(-c3nccs3)c(Br)cc12)C1CC1 [SB-742251]"
metric = "%Inh"
reported_result = 0

[[record]]
compound = "Cc1c(Cn2ccn3c(=O)cc(N4CCOCC4)nc23)cccc1C(F)(F)F [GSK2289044]"
metric = "%Inh"
reported_result = 0

[[record]]
compound = "CCn1c(-c2cccnc2O)nc2cnccc21 [SB-736715]"
metric = "%Inh"
reported_result = 0

[[record]]
compound = "CC1=C(C(=O)Nc2cc3cn[nH]c3cc2F)C(c2ccc(C(F)(F)F)cc2)CC(=O)N1 (stereo not shown) [GSK429286]"
metric = "%Inh"
reported_result = 0

[[record]]
compound = "O=c1cc(N2CCOCC2)nc2n(Cc3cccc(Cl)c3Cl)ccn12 [GSK2286295]"
metric = "%Inh"
reported_result = 0

[[record]]
compound = "Cn1ccc2ncnc(Oc3ccc(NC(=O)Nc4ccccc4)cc3)c21"
metric = "%Inh"
reported_result = 11

[[record]]
compound = "Cc1cccc(-c2nc(C)cc(Nc3ccncc3)n2)n1 [GSK257997]"
metric = "%Inh"
reported_result = 1

[[record]]
compound = "CS(=O)(=O)c1ccc(-c2nc3n(c2-c2ccncc2)CCC3)cc1 [SKF-105942]"
metric = "%Inh"
reported_result = 11


Parameter requested: %Inh. Apply to each item below.
1. Cc1csc(-c2nc(Nc3ccncc3)c3ccccc3n2)n1 [GW869640]
2. Cc1cccc(-c2nc(Nc3cccc(C(N)=O)c3)c3ccccc3n2)n1 [GW876019]

Response line:
1. 24
2. 0
